Attribution: paper PMC3959744

target: AR (Homo sapiens, UniProt P10275, T878A); format: cell-based; settings: LNCaP cells, 15 μM, 24 h, Western blot
Sequence (P10275 whole entry T878A): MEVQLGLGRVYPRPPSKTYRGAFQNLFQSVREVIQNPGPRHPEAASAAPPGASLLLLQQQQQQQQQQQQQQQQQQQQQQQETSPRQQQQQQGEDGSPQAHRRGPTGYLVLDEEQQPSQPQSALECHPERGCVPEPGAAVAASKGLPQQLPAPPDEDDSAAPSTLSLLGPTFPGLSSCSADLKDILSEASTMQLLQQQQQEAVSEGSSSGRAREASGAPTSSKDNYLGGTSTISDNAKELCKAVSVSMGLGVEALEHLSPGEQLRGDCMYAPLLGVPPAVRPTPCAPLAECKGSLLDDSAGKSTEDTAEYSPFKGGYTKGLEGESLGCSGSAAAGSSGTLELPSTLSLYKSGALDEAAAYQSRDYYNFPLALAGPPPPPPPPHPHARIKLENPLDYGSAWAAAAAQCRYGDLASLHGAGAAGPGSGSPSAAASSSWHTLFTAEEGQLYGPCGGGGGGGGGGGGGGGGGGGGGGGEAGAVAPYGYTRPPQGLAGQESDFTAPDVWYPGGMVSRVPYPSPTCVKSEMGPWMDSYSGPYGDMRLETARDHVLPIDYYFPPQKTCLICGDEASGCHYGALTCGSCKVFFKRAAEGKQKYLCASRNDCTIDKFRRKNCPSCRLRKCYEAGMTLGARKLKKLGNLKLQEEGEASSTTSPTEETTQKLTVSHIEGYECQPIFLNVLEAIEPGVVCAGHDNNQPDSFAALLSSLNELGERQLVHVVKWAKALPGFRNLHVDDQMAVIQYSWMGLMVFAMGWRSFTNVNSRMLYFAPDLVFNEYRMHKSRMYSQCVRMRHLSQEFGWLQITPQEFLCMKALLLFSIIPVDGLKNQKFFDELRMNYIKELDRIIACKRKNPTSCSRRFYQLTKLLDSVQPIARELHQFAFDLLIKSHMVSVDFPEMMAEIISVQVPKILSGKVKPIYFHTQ
ASSAY_METRIC: effect on AR protein expression (AR degradation / ARD activity)

{"SMILES": "C[C@]12CC[C@H](O)CC1=CC[C@@H]1[C@@H]2CC[C@]2(C)C(n3cnc4ccccc43)=C(CNc3ccccc3)C[C@@H]12", "EXPERIMENTAL_VALUE": "significant loss of ARD"}
{"SMILES": "CC(C)CCNCC1=C(n2cnc3ccccc32)[C@@]2(C)CC[C@H]3[C@@H](CC=C4C[C@@H](O)CC[C@@]43C)[C@@H]2C1", "EXPERIMENTAL_VALUE": "significant loss of ARD"}
{"SMILES": "COc1ccc(NCC2=C(n3cnc4ccccc43)[C@@]3(C)CC[C@H]4[C@@H](CC=C5C[C@@H](O)CC[C@@]54C)[C@@H]3C2)cc1OC", "EXPERIMENTAL_VALUE": "significant loss of ARD"}
